The reported numbers originate from ChEMBL document CHEMBL5543119.

Below are IC50 values recorded for Squalene synthase (Rattus norvegicus).
result type: IC50 (nM)

Example entries begin here.
- compound: "COc1ccccc1C1OCCCN(C(=O)N2CCC(C(=O)O)CC2)CC(=O)N(CC(C)(C)C)c2ccc(Cl)cc21 (configuration not stated)"
  display unit: "nM"
  measured value: 12
- compound: "COc1ccccc1C1OCCN(C2CCCN(C(=O)C(=O)O)C2)C(=O)CC(=O)N(CC(C)(C)C)c2ccc(Cl)cc21 (configuration not stated)"
  display unit: "nM"
  measured value: 21
- compound: "CCOC(=O)C1CCN(C(=O)CN2CCOC(c3ccccc3OC)c3cc(Cl)ccc3N(CC(C)(C)C)C(=O)CC2=O)CC1 (configuration not stated)"
  display unit: "nM"
  measured value: 390
- compound: "COc1ccccc1C1OCCCN(C(=O)N2CCC(CC(=O)O)CC2)CC(=O)N(CC(C)(C)C)c2ccc(Cl)cc21 (configuration not stated)"
  display unit: "nM"
  measured value: 7
- compound: "CCOC(=O)[C@H]1CCC[C@H](N2CCOC(c3ccccc3OC)c3cc(Cl)ccc3N(CC(C)(C)C)C(=O)CC2=O)C1 (some centres not stated)"
  display unit: "nM"
  measured value: 54

(1) CCOC(=O)C(=O)N1CCCC(N2CCOC(c3ccccc3OC)c3cc(Cl)ccc3N(CC(C)(C)C)C(=O)CC2=O)C1 (configuration not stated)
(2) CCOC(=O)C1CCCN(C(=O)CN2CCOC(c3ccccc3OC)c3cc(Cl)ccc3N(CC(C)(C)C)C(=O)CC2=O)C1 (configuration not stated)
For this pair, 1 and 2 , which shows a numerically higher IC50? Write the label of whichever entry you select. 2

(1) COc1ccccc1C1OCCN([C@H]2CC[C@H](C(=O)O)CC2)C(=O)CC(=O)N(CC(C)(C)C)c2ccc(Cl)cc21 (some centres not stated)
(2) COc1ccccc1C1OCCCN(C(=O)N2CCCC(C(=O)O)C2)CC(=O)N(CC(C)(C)C)c2ccc(Cl)cc21 (configuration not stated)
Lower IC50: 1 or 2 ? Mark your answer with the label of the selected entry. 1
(1: 23 nM, 2: 170 nM)

====

# Tested on: Hepatocyte
# measurement notes: Inhibition of cholesterol biosynthesis in rat hepatocytes preincubated for 1 hr followed by [14C]mevalonolactone addition and measured after 1 hr by liquid scintillation counter analysis
# Type: functional, cell-based
Reported IC50 values are given for each entry in this list.
Give your result in nM as a bare value.

- structure: "COc1ccccc1[C@H]1OCCCN(C(=O)N2CCC(CC(=O)O)CC2)CC(=O)N(CC(C)(C)C)c2ccc(Cl)cc21"
  display unit: "nM"
  IC50: 120

Check Hepatocyte data and give IC50 for COc1ccccc1[C@@H](O)c1cc(Cl)ccc1N(CC(C)(C)C)C(=O)CCC(=O)N1CCC[C@H](C(=O)O)C1 . 120
